Cited source for all entries: FireProtDB (doi:10.1021/bi00437a058)

B1: Ribonuclease, P00648 (parent)
chain: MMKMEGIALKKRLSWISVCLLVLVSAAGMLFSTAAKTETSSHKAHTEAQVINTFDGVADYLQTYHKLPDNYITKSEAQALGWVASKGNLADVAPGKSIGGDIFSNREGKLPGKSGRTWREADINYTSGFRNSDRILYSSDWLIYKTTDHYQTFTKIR

# Variants of: B1
# test_conditions: Bacillus amyloliquefaciens; pH 6.3; 25 °C; Urea; Fluorescence; MES 450 mM; reversible: yes (100%); structure 1BNI; whole UniProt chain shown
measurement_type: denaturant m value (kcal/mol/M)

[
  {
    "mutation": "I143V",
    "measurement_type": "denaturant m value",
    "observed_value": 2.11
  },
  {
    "mutation": "I143A",
    "measurement_type": "denaturant m value",
    "observed_value": 2.18
  },
  {
    "mutation": "I135A",
    "measurement_type": "denaturant m value",
    "observed_value": 2.16
  },
  {
    "mutation": "L61A",
    "measurement_type": "denaturant m value",
    "observed_value": 2.08
  },
  {
    "mutation": "I135V",
    "measurement_type": "denaturant m value",
    "observed_value": 2.06
  }
]
